Target: IDO1 (Homo sapiens (Human), UniProt P14902)
Sequence (P14902 whole entry): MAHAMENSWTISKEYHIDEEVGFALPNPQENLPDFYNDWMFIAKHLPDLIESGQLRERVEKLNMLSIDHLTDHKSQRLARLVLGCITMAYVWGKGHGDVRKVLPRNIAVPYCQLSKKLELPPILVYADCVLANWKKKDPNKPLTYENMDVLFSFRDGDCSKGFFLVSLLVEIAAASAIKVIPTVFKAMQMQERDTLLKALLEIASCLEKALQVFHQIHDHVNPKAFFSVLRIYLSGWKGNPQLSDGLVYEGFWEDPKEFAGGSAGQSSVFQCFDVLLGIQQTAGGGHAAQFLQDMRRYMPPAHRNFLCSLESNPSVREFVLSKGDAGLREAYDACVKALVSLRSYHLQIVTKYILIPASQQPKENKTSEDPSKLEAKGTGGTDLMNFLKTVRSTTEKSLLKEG
Test: IDO1 Human Whole Blood Assay
Type: cell-based
Conditions: LPS and IFNγ 100 ng/mL, kynurenine by LC/MS/MS
READOUT_TYPE: IC50 (nM)
# unit: nM | format: bare number

Before answering, review these 2 worked examples.
Cn1c(CSc2nonc2/C(=N/O)Nc2ccc(F)c(Br)c2)n[nH]c1=O :: 635
COCCNS(=O)(=O)NCCSc1nonc1/C(=N/O)Nc1ccc(F)c(Br)c1 :: 643

# input for lookup
Entry N[C@H](CO)CSc1nonc1/C(=N/O)Nc1ccc(F)c(Br)c1 ; IC50 = 745

---

Target: IDO1 (Homo sapiens (Human), UniProt P14902)
Experiment: IDO1 Cellular Assay in Hela Cells Stimulated with IFNγ
Type: cell-based
Conditions: Hela cells stimulated with IFNγ 100 ng/mL; read-out: IDO1 HELA Cell Assay, IC50
pIC50: −log10 of the molar value.
Response key: criterion met means pIC50 >= 7; criterion not met means pIC50 < 7.

O=c1cccc(CSc2nonc2/C(=N/O)Nc2ccc(F)c(Br)c2)[nH]1 [Example 86] :: criterion met
CNC(=O)CSc1nonc1/C(=N/O)Nc1ccc(F)c(C#N)c1 [Example 185] :: criterion not met
COCCNP(=O)(CCSc1nonc1/C(=N/O)Nc1ccc(F)c(Br)c1)NCCOC [Example 100] :: criterion not met
NC(=O)CSc1nonc1/C(=N/O)Nc1ccc(F)c(Br)c1 [Example 77] :: criterion met
CNC(=O)N1CCC(Sc2nonc2/C(=N/O)Nc2ccc(F)c(Br)c2)CC1 [Example 104] :: criterion not met

Does pIC50 meet or surpass 7 for CNS(=O)(=O)NC(=O)CSc1nonc1/C(=N/O)Nc1ccc(F)c(Br)c1 [Example 199] ?
criterion not met

Check this compound for pIC50 at or above 7: O=C(NCCSc1nonc1C(=NO)Nc1ccc(F)c(Br)c1)NCC1CCOCC1 [Example 130]
criterion not met

Hi team, for CC(=O)N[C@@H](C)CSc1nonc1/C(=N/O)Nc1ccc(F)c(C#N)c1 [Example 180] , is the recorded pIC50 at or above 7?
criterion not met
